These measurements were taken from paper PMC5827532.

Assay: Cytoprotection against menadione-induced damage (MTS assay)
Conditions: rat, PC-12 cells
Experimental Endpoint: viability at 3 h, 25 μM

[[record]]
cpd_smiles = "CC1=CC(=O)c2ccccc2C1=O"
obs_value = "~17%"

